Data origin: patent US9193744B2

These records show pIC50 for Glucocorticoid Receptor (GR) (Homo sapiens).
pIC50: −log10 of the molar value.
quantityName: pIC50

{"columns": ["smilesRepr", "quantityName", "result"],
 "data": [
  ["N#CC[C@]1(O)CC[C@]2(CC3CC3)c3cc4cnn(-c5ccc(F)cc5)c4cc3CCC[C@@H]2C1", "pIC50", "> 7.00"],
  ["CC[C@]12CC[C@@](O)(COC)C[C@H]1CCOc1cc3c(cnn3-c3ccnc(C(F)(F)F)c3)cc12", "pIC50", "6.00 to 7.00"],
  ["CC[C@@]12CC[C@](O)(CC#N)C[C@@H]1CCOc1cc3c(cnn3-c3ccnc(C)c3)cc12", "pIC50", "> 7.00"],
  ["N#CC[C@]1(O)CC[C@]2(Cc3ccccn3)c3cc4cnn(-c5ccc(F)cc5)c4nc3CCC[C@@H]2C1", "pIC50", "6.00 to 7.00"]
]}

---

Molecular target: UniProt:P04150
Sequence (P04150 1-777): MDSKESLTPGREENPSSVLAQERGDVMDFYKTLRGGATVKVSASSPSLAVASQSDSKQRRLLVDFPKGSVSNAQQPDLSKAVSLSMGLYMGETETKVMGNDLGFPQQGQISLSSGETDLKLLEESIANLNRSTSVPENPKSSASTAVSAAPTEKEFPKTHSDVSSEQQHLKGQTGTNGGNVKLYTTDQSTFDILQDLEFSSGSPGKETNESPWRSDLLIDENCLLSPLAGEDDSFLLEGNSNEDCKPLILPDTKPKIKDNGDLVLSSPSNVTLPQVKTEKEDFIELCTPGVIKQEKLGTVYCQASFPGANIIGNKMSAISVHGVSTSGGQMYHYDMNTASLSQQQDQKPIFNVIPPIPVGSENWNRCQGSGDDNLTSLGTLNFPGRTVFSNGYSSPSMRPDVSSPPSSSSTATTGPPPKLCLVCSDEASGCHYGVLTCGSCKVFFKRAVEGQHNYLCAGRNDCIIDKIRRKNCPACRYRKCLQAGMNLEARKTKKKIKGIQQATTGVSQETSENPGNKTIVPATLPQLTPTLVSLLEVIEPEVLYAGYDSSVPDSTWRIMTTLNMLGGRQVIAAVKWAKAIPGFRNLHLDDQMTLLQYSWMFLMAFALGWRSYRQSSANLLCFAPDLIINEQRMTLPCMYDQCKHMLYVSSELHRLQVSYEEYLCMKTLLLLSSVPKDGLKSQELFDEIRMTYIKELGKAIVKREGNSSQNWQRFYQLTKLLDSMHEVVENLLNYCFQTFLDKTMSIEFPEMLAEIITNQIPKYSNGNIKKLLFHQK
pIC50: −log10 of the molar value.

{"columns": ["compound", "pIC50"],
 "data": [
  ["CC[C@]12CC[C@@](O)(C(F)(F)F)C[C@@H]1CCCc1cc3c(cnn3-c3ccc(S(C)(=O)=O)cc3)cc12", "6.00 to 7.00"],
  ["COC[C@@]1(O)CC[C@@]2(Cc3ccccn3)c3cc4cnn(-c5ccc(F)cc5)c4cc3CCC[C@H]2C1 (single isomer, unassigned)", "> 7.00"],
  ["CCC[C@@]1(O)CC[C@]2(CC)c3cc4cnn(-c5ccc(F)cc5)c4cc3CCC[C@H]2C1 (single isomer, unassigned)", "6.00 to 7.00"],
  ["CC[C@@]12CC[C@](O)(C(F)(F)F)C[C@H]1CCCc1nc3c(cnn3-c3ccc(F)cc3)cc12 (racemic) [Example 152]", "> 7.00"],
  ["CC[C@@]12CC[C@](O)(COC)C[C@H]1CCCc1cc3c(cnn3-c3ccc(F)cc3)cc12", "> 7.00"],
  ["CC[C@@]12C[C@@H](O)[C@](O)(C(F)(F)F)C[C@H]1CCCc1cc3c(cnn3-c3ccc(F)cc3)cc12 (single isomer, unassigned)", "> 7.00"],
  ["CC#C[C@]1(O)CC[C@]2(CC)c3cc4cnn(-c5ccc(F)cc5)c4cc3CCC[C@H]2C1", "6.00 to 7.00"],
  ["O=C(NC1CC1)[C@]12CC[C@@](O)(C(F)(F)F)C[C@@H]1CCCc1cc3c(cnn3-c3ccc(F)cc3)cc12 (single isomer, unassigned)", "> 7.00"],
  ["CC[C@@]12CC[C@@](C)(O)C[C@@H]1CCCc1cc3c(cnn3-c3ccc(F)cc3)cc12", "> 7.00"],
  ["C[C@@]1(O)CC[C@@]2(CC3CC3)c3cc4cnn(-c5ccc(F)cc5)c4cc3CCC[C@H]2C1", "> 7.00"],
  ["N#CC[C@]1(O)CC[C@]2(Cc3ncccn3)c3cc4cnn(-c5ccc(F)cc5)c4nc3CCC[C@@H]2C1", "> 7.00"],
  ["O=S1(=O)CCCN1C[C@@]12CC[C@](O)(C(F)(F)F)C[C@H]1CCCc1cc3c(cnn3-c3ccc(F)cc3)cc12", "> 7.00"],
  ["N#CC[C@@]1(O)CC[C@@]2(Cc3ccccn3)c3cc4cnn(-c5ccncc5)c4cc3CCC[C@H]2C1", "> 7.00"]
]}
